Protein target, amino acids: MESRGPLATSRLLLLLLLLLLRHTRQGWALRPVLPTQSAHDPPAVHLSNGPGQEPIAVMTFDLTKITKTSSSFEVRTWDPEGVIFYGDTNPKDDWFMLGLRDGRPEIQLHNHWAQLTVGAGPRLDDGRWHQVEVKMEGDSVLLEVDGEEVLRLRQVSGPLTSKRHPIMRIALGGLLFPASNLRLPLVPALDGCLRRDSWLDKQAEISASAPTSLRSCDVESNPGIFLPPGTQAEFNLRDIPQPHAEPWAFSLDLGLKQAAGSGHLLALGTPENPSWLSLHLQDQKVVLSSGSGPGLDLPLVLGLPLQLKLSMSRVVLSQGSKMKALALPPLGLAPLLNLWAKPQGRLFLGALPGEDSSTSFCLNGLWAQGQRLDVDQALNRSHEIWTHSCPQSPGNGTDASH
observationType: IC50 (µM)

structureSmiles	observationType	observedValue
O=C(Cc1ccc(O)cc1)c1ccc(O)cc1O	IC50	13.6

###

Listed molecules paired with reported Reduction
- tgt: Sex hormone-binding globulin (Homo sapiens) (UniProt P04278)
- method: In vitro inhibition of [3H]DHT binding to human sex hormone-binding globulin (SHBG)
- Parameters: concentration or dose not given beside the values

structureSmiles	Reduction
CC1=C[C@@H](C)[C@@]2(CO)CO[C@@H](c3ccc(O)cc3)[C@@H]1[C@H]2C	56%
C[C@H]1CC[C@H]2[C@@](C)(CO)[C@H](O)CC[C@]2(C)[C@@]12CC[C@@](C)(CO)O2	6%
CC1(C)CC2(CC(C)(C)c3cc(O)c(O)cc32)c2cc(O)c(O)cc21	48%
C[C@H]1CC[C@@H]2[C@](C)(CO)[C@H](O)CC[C@@]2(C)[C@@]12C[C@@]1(COC(=O)C1)CO2	9%
O=C1C=CC2=N[C@@]34CCCC[C@@H]3[C@@H](c3ccc(O)cc3)C=C(c3ccccc3)N4C2=C1	0%
Cc1c(CC(=O)N[C@@H](C)C(=O)O)c(=O)oc2cc(O)ccc12	0%
O=C1C=CC2=C3c4ccc(O)cc4OC[C@]3(O)CC2=C1	27%
COC(=O)c1ccc(CC(=O)c2ccc(O)cc2O)o1	10%
C[C@H]1CC[C@@H]2[C@](C)(CO)[C@H](O)CC[C@@]2(C)[C@]12CC[C@@]1(CCOC1)O2	11%

###

Listed molecules paired with reported Reduction
- tgt: UniProtKB P04278
- method: In vitro inhibition of [3H]DHT binding to human sex hormone-binding globulin (SHBG)
- Parameters: concentration or dose not given beside the values

structureSmiles	Reduction [%]
COc1cc(/C=C/C(=O)c2c(O)cc(C)oc2=O)ccc1O	2
O=C1C=CC2=C3c4cc(O)c(O)cc4C[C@@]3(O)COC2=C1O	6
CC(=O)Oc1ccc2c(C)c(C[C@H](C)O)c(=O)oc2c1	42
COc1cc2c(cc1O)CCN(C[C@@H](O)CNCCO)[C@H]2C	12
Cc1c(CCC(=O)O)c(=O)oc2c(C)c(O)ccc12	46
C=C1CC[C@H]2[C@](C)(CO)[C@H](O)CC[C@@]2(C)[C@@H]1C/C=C1/C(=O)OC[C@@H]1O	0
C=C1CC[C@H]2[C@](C)(CO)[C@H](O)CC[C@@]2(C)[C@@H]1/C=C/C1=CCOC1=O	0
CN1CCc2cc(O)c(O)cc2[C@H]1Cc1ccc(O)c(O)c1	14
CC[C@H](NC(=O)Cc1c(C)c2ccc(O)cc2oc1=O)C(=O)O	0
